Cited source for all entries: the supplement of paper PMC6580486

// PCB-490-4 (human epithelioid sarcoma primary culture) IC50 cell viability records

Here is how some compounds turned out for IC50 cell viability.
Field IC50 cell viability (entry CC(C)(C)Cn1c(N)nc2ccc(-c3[nH]c(C(C)(C)C)nc3-c3ccc(F)cc3)nc21 ) reads > 10000 nM

Field IC50 cell viability (entry C=C[C@@]1(C)CC(=O)[C@]2(O)[C@@]3(C)[C@@H](O)CCC(C)(C)[C@@H]3[C@H](O)[C@H](OC(C)=O)[C@@]2(C)O1 ) reads > 10000 nM

Field IC50 cell viability (entry CCc1cnn2c(NCc3ccc[n+]([O-])c3)cc(N3CCCC[C@H]3CCO)nc12 ) reads 100 nM

Further cases:
Field IC50 cell viability (entry Cn1c(=O)n(-c2ccc(C(C)(C)C#N)cc2)c2c3cc(-c4cnc5ccccc5c4)ccc3ncc21 ) reads 260 nM

----------
# Test system: PCB490-3 (human epithelioid sarcoma primary culture)
MEASURED ENDPOINT: IC50 cell viability

So the reported IC50 cell viability for O=c1[nH]c2nc(NC3CCOCC3)ncc2cc1Oc1ccc(F)cc1F , on PCB490-3, turned out to be > 100 µM

So the reported IC50 cell viability for COc1ccc(N2Cc3cnc(Nc4ccccc4)nc3N([C@@H]3CC[C@@H](O)C3)C2=O)cc1 , on PCB490-3, turned out to be 2.59 µM

So the reported IC50 cell viability for O=C1NC(=NCCc2cccs2)S/C1=C\c1ccc2ncccc2c1 , on PCB490-3, turned out to be > 100 µM

So the reported IC50 cell viability for Nc1c(C(=O)c2cccc(C(O)(CO)CO)c2)cnn1-c1ccc(F)cc1 , on PCB490-3, turned out to be > 100 µM

So the reported IC50 cell viability for Nc1c(C(=O)c2cccc(CCC3(O)CCCC3)c2)cnn1-c1ccc(F)cc1 , on PCB490-3, turned out to be > 100 µM

Further cases:
So the reported IC50 cell viability for Nc1c(C(=O)c2cccc(CCCN3CCOCC3)c2)cnn1-c1ccc(F)cc1 , on PCB490-3, turned out to be > 100 µM

----------
// FU-EPS-1 IC50 cell viability records
Write the answer as a number in nM, unit excluded.

Here is how some compounds turned out for IC50 cell viability.
So the reported IC50 cell viability for C=CCn1c(=O)c2cnc(Nc3ccc(N4CCN(C)CC4)cc3)nc2n1-c1cccc(C(C)(C)O)n1 [MK-1775] , on FU-EPS-1, turned out to be 1010

So the reported IC50 cell viability for Nc1nc2c(ncn2COC(CO)CO)c(=O)[nH]1 [Ganciclovir] , on FU-EPS-1, turned out to be 20

Further cases:
So the reported IC50 cell viability for O=C(O)c1ccc2c(c1)nc(Nc1cccc(Cl)c1)c1ccncc12 [CX-4945] , on FU-EPS-1, turned out to be 140

----------
// ESX IC50 cell viability records
Write the answer as a number in µM, unit excluded.

Here is how some compounds turned out for IC50 cell viability.
So the reported IC50 cell viability for COc1cccc(OCCCN)c1-c1cc(Nc2cnc(C#N)cn2)n[nH]1 , on ESX, turned out to be 0.23

So the reported IC50 cell viability for CCc1cnn2c(NCc3ccc[n+]([O-])c3)cc(N3CCCC[C@H]3CCO)nc12 , on ESX, turned out to be 0.01

Turning now to a further compound:
So the reported IC50 cell viability for C[C@@H](Oc1cc(-c2cnn(C3CCNCC3)c2)cnc1N)c1c(Cl)ccc(F)c1Cl , on ESX, turned out to be 4.37
